- Subject of test: human 5-HT2C receptor (Homo sapiens, UniProt P28335, I156V/I160V/N158S)
- Sequence (P28335 33-458 I156V/N158S/I160V limits assumed): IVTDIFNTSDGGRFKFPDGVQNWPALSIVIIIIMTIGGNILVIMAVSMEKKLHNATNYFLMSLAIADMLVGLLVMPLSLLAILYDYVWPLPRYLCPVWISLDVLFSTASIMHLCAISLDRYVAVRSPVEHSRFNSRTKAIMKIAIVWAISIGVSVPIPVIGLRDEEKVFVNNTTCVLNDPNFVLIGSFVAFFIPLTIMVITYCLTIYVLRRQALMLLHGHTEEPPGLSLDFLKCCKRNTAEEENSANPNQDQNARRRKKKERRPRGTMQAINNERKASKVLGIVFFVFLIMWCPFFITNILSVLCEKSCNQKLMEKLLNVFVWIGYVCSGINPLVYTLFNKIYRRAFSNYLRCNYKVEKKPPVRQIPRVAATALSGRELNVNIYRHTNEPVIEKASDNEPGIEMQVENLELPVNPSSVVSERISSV
- Experiment description: cell-based
Listing of recorded EC50 by entry.
Expressed in nM, but write only the number.

Would you please look over these solved cases?
>  <Compound>
Clc1cccnc1OC1CN(c2c3c(nc4ccnn24)CCNCC3)C1 [Example 20.11]

>  <Reading unit>
nM

>  <EC50>
116

$$$$
>  <Compound>
COc1ccccc1N(C)C(=O)C1CN(c2c3c(nc4ccnn24)CCNCC3)C1 [Example 31.38]

>  <Reading unit>
nM

>  <EC50>
790

$$$$
>  <Compound>
O=C(NCC1CCCCO1)C1CN(c2c3c(nc4ccnn24)CCNCC3)C1 (centres unmarked) [Example 37.55]

>  <Reading unit>
nM

>  <EC50>
66

$$$$
>  <Compound>
O=C(NCC1CCCCC1)C1CN(c2c3c(nc4ccnn24)CCNCC3)C1 [Example 31.225]

>  <Reading unit>
nM

>  <EC50>
111

$$$$

Consider now this further compound.
Sure, the documented EC50 for O=C(C1CN(c2c3c(nc4ccnn24)CCNCC3)C1)N1CCCC(F)C1 (centres unmarked) [Example 31.193] is 64
